Each item that follows carries a reported IC50 (nM), HT29 meso+ cells, MTT proliferation assay.
target: Mesothelin (SwissProt reference Q13421-3) (Homo sapiens, UniProt Q13421 37-622); assay: cell-based or functional assay
Supply the numeric figure in nM, leaving out any unit text.

Examples from the recorded data:
Example 110, conjugate of anti-mesothelin antibody MF-Ta (antibody, human IgG1, lambda, V domains shown, toxophore-linker on Cys sulfur, sites not given) VH: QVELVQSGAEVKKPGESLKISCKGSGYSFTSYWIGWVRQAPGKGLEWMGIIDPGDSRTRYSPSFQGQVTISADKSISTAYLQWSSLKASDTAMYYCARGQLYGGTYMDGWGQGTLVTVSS VL: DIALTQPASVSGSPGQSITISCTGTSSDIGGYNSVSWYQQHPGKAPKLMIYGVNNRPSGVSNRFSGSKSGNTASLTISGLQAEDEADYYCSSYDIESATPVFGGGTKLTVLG :: 0.002
Example 131, conjugate of anti-mesothelin antibody MF-Ta (antibody, human IgG1, lambda, V domains shown, toxophore-linker on Cys sulfur, sites not given) VH: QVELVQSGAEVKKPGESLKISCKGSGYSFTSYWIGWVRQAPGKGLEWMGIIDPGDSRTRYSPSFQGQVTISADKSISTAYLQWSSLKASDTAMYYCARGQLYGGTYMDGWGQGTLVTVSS VL: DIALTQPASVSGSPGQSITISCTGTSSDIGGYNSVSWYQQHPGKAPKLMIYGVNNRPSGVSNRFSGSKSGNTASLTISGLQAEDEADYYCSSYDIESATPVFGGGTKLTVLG :: 0.09
Example 74, conjugate of anti-mesothelin antibody MF-Ta (antibody, human IgG1, lambda, V domains shown, toxophore-linker on Cys sulfur, sites not given) VH: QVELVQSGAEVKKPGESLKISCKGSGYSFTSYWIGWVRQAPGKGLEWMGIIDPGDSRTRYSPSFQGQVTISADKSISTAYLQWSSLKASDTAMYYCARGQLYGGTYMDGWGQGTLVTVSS VL: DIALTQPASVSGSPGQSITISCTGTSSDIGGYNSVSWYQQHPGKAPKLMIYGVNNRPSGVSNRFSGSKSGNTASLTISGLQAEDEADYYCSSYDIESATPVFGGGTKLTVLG :: 9
Example 89, conjugate of anti-mesothelin antibody MF-Ta (antibody, human IgG1, lambda, V domains shown, toxophore-linker on Cys sulfur, sites not given) VH: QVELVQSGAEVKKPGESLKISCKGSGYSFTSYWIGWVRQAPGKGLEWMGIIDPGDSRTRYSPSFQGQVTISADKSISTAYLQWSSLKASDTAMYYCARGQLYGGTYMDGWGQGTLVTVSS VL: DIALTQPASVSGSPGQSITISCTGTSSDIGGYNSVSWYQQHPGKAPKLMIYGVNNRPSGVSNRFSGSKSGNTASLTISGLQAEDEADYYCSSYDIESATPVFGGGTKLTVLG :: 0.06

Now consider a different binder.
Short answer for Example 96, conjugate of anti-mesothelin antibody MF-Ta (antibody, human IgG1, lambda, V domains shown, toxophore-linker on Cys sulfur, sites not given) VH: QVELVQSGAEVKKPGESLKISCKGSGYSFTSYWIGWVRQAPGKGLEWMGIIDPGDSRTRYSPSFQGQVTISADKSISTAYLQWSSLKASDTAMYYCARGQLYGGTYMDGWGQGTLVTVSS VL: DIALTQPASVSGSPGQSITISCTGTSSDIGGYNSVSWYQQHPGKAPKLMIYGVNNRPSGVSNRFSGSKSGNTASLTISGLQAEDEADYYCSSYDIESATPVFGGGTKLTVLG : IC50 (nM), HT29 meso+ cells, MTT proliferation assay was 25
